In this section we review reported pKd values for a set of binders.
target.entity: T1, His-tagged cynomolgus TIGIT (cynomolgus, UniProt A0A7N9I9V4 89-209)
T1 construct: SPR analyte; also called cynomolgus TIGIT protein; not shown: His tag
assay.explanation: SPR (Biacore T200), antibody captured, His-tagged TIGIT analyte
To interpret pKd, take it as minus log10 of a concentration measured in moles per litre.

Report measured pKd; entry is huTIGIT-19-1 (antibody, human IgG1, kappa, V domains shown, Humanized IgG; also called 19VH4.M9 + 19VL1.M4) VH: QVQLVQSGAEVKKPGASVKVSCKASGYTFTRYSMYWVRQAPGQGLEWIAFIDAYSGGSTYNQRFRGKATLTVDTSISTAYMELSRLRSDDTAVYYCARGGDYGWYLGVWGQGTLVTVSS VL: DIQMTQSPSSLSASVGDRVTITCRPSENIYTYLSWYQQKPGKAPKLLIYNAKSLPSGVPSRFSGSGSGTDFTLTISSLQPEDFATYYCQHHYGNPLTFGQGTKVEIKR
10.33

For the binder TIGIT-6 chimeric antibody (antibody, human IgG1, kappa, V domains shown, also called 6VH + 6VL) VH: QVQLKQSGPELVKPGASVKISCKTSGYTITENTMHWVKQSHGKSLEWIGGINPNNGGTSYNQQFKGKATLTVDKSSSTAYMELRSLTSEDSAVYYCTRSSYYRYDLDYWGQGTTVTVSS VL: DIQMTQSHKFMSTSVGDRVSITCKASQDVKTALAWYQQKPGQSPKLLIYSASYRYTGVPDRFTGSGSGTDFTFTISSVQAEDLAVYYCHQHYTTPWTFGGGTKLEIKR , report pKd.
7.41

Note down pKd recorded for TIGIT-19 chimeric antibody (antibody, human IgG1, kappa, V domains shown, also called 19VH + 19VL) VH: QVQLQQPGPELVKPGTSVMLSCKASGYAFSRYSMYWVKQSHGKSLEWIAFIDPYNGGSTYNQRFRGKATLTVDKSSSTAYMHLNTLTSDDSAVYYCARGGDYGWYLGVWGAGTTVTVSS VL: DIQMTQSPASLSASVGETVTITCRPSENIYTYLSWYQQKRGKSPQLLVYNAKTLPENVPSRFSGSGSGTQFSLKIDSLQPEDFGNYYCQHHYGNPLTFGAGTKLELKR
10.49

Hey, just so you know, these numbers are from patent US20260139048A1.
